Molecular target: Trypsin II (Bos taurus, UniProt Q29463)
Sequence (Q29463 whole entry): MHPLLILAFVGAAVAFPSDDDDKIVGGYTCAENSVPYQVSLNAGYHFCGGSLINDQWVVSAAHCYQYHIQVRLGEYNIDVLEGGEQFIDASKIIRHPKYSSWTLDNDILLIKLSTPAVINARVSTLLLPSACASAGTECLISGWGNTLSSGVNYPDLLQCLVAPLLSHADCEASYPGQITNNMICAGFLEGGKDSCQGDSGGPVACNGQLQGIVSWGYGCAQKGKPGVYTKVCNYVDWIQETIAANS
VALUE_KIND: Ki (µM)
Give bare numbers, in µM.

Task: Could you share what Ki was measured for CC1(C)CNc2c(cccc2S(=O)(=O)NC(CCCN=C(N)N)C(=O)N2CCC(CCO)CC2)C1 (stereo unspecified) , tested on Trypsin II (Bos taurus, UniProt Q29463)?
Result: 7.1

----------
Answer each item with its documented IC200.
Assay: The compound was evaluated for the dose to double the control plasma APTT value in the human plasma.
Assay type: functional
One number for each entry, in µM.

MOLECULE: CC1(C)CNc2c(cccc2S(=O)(=O)NC(CCCN=C(N)N)C(=O)N2CCC(CC(F)F)CC2)C1 (centres undefined)
TEST_RESULT: 1.5
//
MOLECULE: CC1(C)CNc2c(cc(Cl)cc2S(=O)(=O)NC(CCCN=C(N)N)C(=O)N2CCC(CC(F)F)CC2)C1 (centres undefined)
TEST_RESULT: 6
//
MOLECULE: CC(=O)NCCC1CCN(C(=O)C(CCCN=C(N)N)NS(=O)(=O)c2cccc3c2NCC(C)C3)CC1 (centres undefined)
TEST_RESULT: 1.8

Task: // lookup IC200 for CC1(C)CNc2c(cccc2S(=O)(=O)NC(CCCN=C(N)N)C(=O)N2CCC(CCF)CC2)C1 (centres undefined)
Result: 2.1

----------
Target: Chymotrypsinogen A (Bos taurus, UniProt P00766)
pKi: −log10 of the molar value.
VALUE_KIND: pKi

Task: Query pKi on Chymotrypsinogen A (Bos taurus, UniProt P00766) for CC1(C)CNc2c(cccc2S(=O)(=O)NC(CCCN=C(N)N)C(=O)N2CCC(CCO)CC2)C1 (stereo unspecified)
Result: < 4.08

----------
Experiment: The compound was evaluated for the dose to double the control plasma APTT value in the human plasma
Assay type: functional
VALUE_KIND: IC200 (µM)
Give bare numbers, in µM.

Provide IC200 for all items below, preserving their order.
1. CC(=O)NCCC1CCN(C(=O)C(CCCN=C(N)N)NS(=O)(=O)c2cccc3c2NCC(C)(C)C3)CC1 (stereo unspecified)
2. CC1(C)CNc2c(cc(Cl)cc2S(=O)(=O)NC(CCCN=C(N)N)C(=O)N2CCC(CCOC(=O)C(C)(C)C)CC2)C1 (stereo unspecified)
3. CC1(C)CNc2c(cc(Cl)cc2S(=O)(=O)NC(CCCN=C(N)N)C(=O)N2CCC(CCF)CC2)C1 (stereo unspecified)
4. CC1CNc2c(cccc2S(=O)(=O)NC(CCCN=C(N)N)C(=O)N2CCC(CCCl)CC2)C1 (stereo unspecified)
5. CCC1CCN(C(=O)C(CCCN=C(N)N)NS(=O)(=O)c2cccc3c2NCC(C)C3)CC1 (stereo unspecified)
6. CC1(C)CNc2c(cccc2S(=O)(=O)NC(CCCN=C(N)N)C(=O)N2CCC(CCO)CC2)C1 (stereo unspecified)

Result:
2.15
8.5
3.25
2.7
6.27
1.9
